target: EPHB2 (UniProt P29323); assay: phosphorylation enrichment, bacterial display (enrichment ratio); higher = better substrate or ligand; peptides without Tyr show the background
Sequence (P29323 whole entry, looked up): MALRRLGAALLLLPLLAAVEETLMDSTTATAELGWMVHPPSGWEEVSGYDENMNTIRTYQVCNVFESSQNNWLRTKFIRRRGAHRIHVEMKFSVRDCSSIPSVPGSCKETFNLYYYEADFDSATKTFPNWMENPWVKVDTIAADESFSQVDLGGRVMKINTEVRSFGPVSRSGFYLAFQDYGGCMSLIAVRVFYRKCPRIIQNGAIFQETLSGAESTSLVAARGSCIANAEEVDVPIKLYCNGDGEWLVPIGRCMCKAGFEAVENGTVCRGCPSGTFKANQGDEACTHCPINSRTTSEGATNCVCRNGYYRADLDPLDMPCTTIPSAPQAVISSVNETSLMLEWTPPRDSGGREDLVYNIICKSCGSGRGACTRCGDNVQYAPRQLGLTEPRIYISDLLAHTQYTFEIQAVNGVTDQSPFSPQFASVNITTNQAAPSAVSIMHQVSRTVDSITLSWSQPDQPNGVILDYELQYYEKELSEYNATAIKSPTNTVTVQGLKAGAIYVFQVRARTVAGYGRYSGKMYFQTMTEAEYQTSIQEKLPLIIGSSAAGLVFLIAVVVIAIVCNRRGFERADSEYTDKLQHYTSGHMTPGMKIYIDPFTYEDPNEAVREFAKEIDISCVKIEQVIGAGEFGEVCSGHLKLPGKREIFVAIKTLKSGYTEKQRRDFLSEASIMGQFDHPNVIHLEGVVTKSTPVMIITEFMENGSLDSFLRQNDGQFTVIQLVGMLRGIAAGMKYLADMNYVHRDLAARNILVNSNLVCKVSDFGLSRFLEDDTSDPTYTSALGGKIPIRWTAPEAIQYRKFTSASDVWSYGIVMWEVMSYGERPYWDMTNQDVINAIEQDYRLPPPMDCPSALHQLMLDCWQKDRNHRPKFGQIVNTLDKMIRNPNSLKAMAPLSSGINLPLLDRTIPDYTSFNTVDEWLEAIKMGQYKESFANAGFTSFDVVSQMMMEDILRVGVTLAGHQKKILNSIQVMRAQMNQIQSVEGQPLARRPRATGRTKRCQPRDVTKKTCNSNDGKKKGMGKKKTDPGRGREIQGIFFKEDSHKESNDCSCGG
Mark class 0 for phosphorylation enrichment values under 0.5, and class 1 for everything at or above.

seq	label value
HEGKIYEFNQV [ZNF665_Y162_YF]	class 1
FTFDPYSEEDP [IL2RB_Y387_YF]	class 1
YEPDAYDDLDQ [ELP5_Y302]	class 1
LLREWYLPDPF [SIX3_Y225_Q227P_YF]	class 1
VDTRAYLTSAT [MT-CO1_Y304_F305L]	class 0

###

Entries annotated with measured phosphorylation enrichment
target: EPHB1 (UniProt P54762); test: phosphorylation enrichment, bacterial display (enrichment ratio); higher = better substrate or ligand; peptides without Tyr show the background
Sequence (P54762 whole entry, looked up): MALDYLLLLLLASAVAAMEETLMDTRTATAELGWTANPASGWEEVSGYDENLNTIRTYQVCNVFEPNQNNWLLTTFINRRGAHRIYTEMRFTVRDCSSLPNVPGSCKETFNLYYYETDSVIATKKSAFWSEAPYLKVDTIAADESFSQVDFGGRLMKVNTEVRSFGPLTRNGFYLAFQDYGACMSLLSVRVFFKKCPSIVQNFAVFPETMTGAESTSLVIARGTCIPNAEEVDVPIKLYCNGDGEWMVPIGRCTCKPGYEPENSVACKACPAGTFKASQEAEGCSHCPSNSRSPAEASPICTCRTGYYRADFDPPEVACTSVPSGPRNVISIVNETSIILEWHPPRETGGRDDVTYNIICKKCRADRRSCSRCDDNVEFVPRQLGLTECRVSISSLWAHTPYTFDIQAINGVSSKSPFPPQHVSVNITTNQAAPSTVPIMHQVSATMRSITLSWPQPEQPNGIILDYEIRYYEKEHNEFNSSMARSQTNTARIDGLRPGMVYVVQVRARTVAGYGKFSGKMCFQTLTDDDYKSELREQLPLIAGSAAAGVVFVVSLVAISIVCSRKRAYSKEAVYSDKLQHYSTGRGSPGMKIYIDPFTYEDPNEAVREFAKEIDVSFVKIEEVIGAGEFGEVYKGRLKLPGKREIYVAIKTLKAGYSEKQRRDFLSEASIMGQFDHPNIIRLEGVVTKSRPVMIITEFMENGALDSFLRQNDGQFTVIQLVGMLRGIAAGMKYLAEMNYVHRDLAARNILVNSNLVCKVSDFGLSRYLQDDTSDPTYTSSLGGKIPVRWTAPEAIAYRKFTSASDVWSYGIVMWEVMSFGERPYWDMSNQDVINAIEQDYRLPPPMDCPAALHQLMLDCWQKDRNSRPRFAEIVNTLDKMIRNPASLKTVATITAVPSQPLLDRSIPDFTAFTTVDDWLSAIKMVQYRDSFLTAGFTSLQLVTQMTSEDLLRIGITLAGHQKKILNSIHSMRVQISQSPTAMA

seq	phosphorylation enrichment
VRVQLYDPDFM [CYP4A22_Y100_Y104F]	0.717
GTVRDYPDFSP [ANXA3_Y15]	0.44
SDGKRYRVPSD [HHIPL2_Y395_H391D]	0.357
DDFDLYGGEKF [PTPN11_Y66_Y62D_YF]	0.639
LSVEIYDRREF [ITGB7_Y753_YF]	0.428
GSRGKCSSGFR [ATM_Y332_Y332C]	0.41
RNFGTYTAGLS [RHBDD1_Y264_D262G_YF]	0.377

###

target: c-Src SH2; assay: SH2 binding enrichment of the phosphorylated peptide, bacterial display (enrichment ratio); higher = better substrate or ligand; peptides without Tyr show the background;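 note: peptide library displayed on the E. coli surface as eCPX fusions, selected cells deep-sequenced, score is each peptide's frequency after selection divided by its frequency in the input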
Entries annotated with measured SH2 binding enrichment

seq	SH2 binding enrichment
EQLRAYLEGTC [HLA-C_Y183]	0.561
TRHDEYLEVTK [MAP1A_Y2217]	0.506
SHSMKYFDTAV [HLA-C_Y31_R30K]	0.417
PLTKVYVVEGS [ZMPSTE24_Y253]	0.529
RAMRRYLERGE [ERBB3_Y680]	0.411
KDAGDYKFKAK [LRIT3_Y326_C328Y_YF]	0.504
NLVSEYQQFQD [TUBB3_Y422_D417N_YF]	0.64

###

Entries annotated with measured phosphorylation enrichment
target: FGFR3 (UniProt P22607); test: phosphorylation enrichment, bacterial display (enrichment ratio); higher = better substrate or ligand; peptides without Tyr show the background
Sequence (P22607 whole entry, looked up): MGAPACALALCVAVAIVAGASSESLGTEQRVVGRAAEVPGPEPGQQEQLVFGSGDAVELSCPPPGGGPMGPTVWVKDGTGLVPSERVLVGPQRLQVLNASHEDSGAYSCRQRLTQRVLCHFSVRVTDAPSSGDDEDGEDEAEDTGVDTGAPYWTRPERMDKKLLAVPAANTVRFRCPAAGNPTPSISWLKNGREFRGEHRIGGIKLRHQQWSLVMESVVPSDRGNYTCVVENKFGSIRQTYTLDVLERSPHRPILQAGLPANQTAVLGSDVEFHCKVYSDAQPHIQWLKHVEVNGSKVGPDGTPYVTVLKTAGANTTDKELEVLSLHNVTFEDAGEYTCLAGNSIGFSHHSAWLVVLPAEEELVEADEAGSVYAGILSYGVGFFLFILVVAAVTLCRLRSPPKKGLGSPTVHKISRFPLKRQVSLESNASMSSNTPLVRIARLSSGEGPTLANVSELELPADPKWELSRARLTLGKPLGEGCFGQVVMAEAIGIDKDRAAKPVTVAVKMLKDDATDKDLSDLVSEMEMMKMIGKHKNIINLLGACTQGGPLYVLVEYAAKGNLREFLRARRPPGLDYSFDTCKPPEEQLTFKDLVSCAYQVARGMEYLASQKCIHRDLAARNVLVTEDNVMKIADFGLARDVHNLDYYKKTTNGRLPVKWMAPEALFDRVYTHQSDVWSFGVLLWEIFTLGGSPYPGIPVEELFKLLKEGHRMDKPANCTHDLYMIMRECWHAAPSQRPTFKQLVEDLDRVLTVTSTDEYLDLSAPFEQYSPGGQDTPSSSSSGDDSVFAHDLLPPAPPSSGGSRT

seq	phosphorylation enrichment
ETEMLYGSAPR [PRC1_Y464]	0.557
GRPLSYWLTGC [LYZL6_Y140_F139S]	0.793
EVVGRYSGHNA [MLH1_Y183_V185G]	0.48
PKGIGYGQGAG [CSRP3_Y73]	0.513
MSRNLYSGDCF [DDR2_Y736_Y740C_YF]	0.968
VITTLYIGFLG [KCNQ1_Y267_L262V]	0.874
RVQKRYILDNV [RCN1_Y115_F117L]	0.327
WRRLIYRCQVG [NR2E3_Y81_R76W]	0.515
GVFSRHFTTFD [CLCA1_Y661_Y661H_YF]	0.814
LAAAKYKLNVD [SMARCA2_Y1190]	0.556
KVNKIYFPDFI [LIG3_Y767_YF]	1.26
QNTVDYYDLYG [PTPN11_Y62_G60V]	15.4
SGSIHYSRVPR [GLB1_Y57]	0.578
RIFDYYSARKT [STOX1_Y858_A863T]	0.48
DQGEQYKKELE [LMNA_Y259_V256G]	0.682
PKEQKYSFLQN [GH1_Y68]	0.978
GEYYRYLAEVA [YWHAG_Y133_D129E]	7.42
LDYNEYFRDLN [HPRT1_Y198]	1.28
YCRITYDIFPF [INTS13_Y67_M66T]	1.38
KGEDFYCVTFH [FHL1_Y149_C153Y_YF]	1.12
LVMFIYVIFGM [SCN1A_Y1684_A1685V]	0.604
EWKNNYPRLRE [OPA1_Y582]	0.483
TILEHYRRTHC [MYBPC3_Y1119_V1115I]	0.619
SFPPTYRYERG [INPPL1_Y661]	0.49
MDYRSYPREYG [RBM10_Y44]	0.684
IIEDPYYGNDF [ACP1_Y132_S137F]	2.88
PVQAPYQKVVA [HBB_Y131_A130P]	0.429
DLDLTYIYPNI [PTEN_Y27]	2.61
KVVQEYERVII [NPHS2_Y131]	0.719
FSLPAFMDRRD [COX4I1_Y38_Y38F]	0.537
SVGVPYEPPEV [TP53_Y220_V217G]	0.748
PGLSSYGVPAS [FLNB_Y1530]	0.526
SVCPDYDLCSI [SQSTM1_Y148_V153I]	0.763
RKGGSYTQAAS [HLA-A_Y344]	0.563
IEDPYYGNDFD [ACP1_Y133_S137F]	1.7
TGQERYRAITS [RAB11B_Y73_A68T]	0.392
QFQEKYKQVEQ [HCN4_Y531_YF]	0.706
AGQEDYDRLRP [CDC42_Y64]	0.69
AAVDEYLEFRR [FAM221A_Y17_YF]	0.531
DHYNQYEQQKM [CHD7_Y75]	0.524
GFRVCYTPDSR [PTPRF_Y451_Y450C_YF]	0.691
YLELNYKEDEY [MME_Y502]	3.65
NKVFTYIFIME [SCN4A_Y1074_D1069N]	0.857
FAGRDYSLDEF [MYOF_Y1705_G1701A_YF]	0.708
RLEKEYFDQHF [NPC1_Y394]	0.959
KFMVGYEMLAK [GALT_Y339_Q344K]	0.631
VTAALYGCLFE [BTD_Y536_R538C_YF]	0.998
FGPPQYNIQFS [ERBB2IP_Y977_YF]	0.508
QEGPEYWDGNT [HLA-B_Y83_R86G]	1.56
LTRDIYKNDFF [ROS1_Y2110_A2106T_YF]	0.963
FEEDSYVTRSQ [RET_Y905_K907T_YF]	1.08
RSYSPCDYQPC [TNS1_Y796_Y796C]	1.28
SQDSAYHSGIQ [FLG_Y3940]	0.512
SSPQPYLVPFL [TAF4_Y652]	0.746
CSEEMYRLMLQ [RET_Y981]	0.853
GRQVIYTENER [GPR143_Y231_G229V]	0.479
YRASYYRRGDR [LTK_Y677]	0.431
YFRDGHMPRQY [GSS_Y270_Y270H]	0.583

###

target: MERTK (UniProt Q12866); assay: phosphorylation enrichment, bacterial display (enrichment ratio); higher = better substrate or ligand; peptides without Tyr show the background
Sequence (Q12866 whole entry, looked up): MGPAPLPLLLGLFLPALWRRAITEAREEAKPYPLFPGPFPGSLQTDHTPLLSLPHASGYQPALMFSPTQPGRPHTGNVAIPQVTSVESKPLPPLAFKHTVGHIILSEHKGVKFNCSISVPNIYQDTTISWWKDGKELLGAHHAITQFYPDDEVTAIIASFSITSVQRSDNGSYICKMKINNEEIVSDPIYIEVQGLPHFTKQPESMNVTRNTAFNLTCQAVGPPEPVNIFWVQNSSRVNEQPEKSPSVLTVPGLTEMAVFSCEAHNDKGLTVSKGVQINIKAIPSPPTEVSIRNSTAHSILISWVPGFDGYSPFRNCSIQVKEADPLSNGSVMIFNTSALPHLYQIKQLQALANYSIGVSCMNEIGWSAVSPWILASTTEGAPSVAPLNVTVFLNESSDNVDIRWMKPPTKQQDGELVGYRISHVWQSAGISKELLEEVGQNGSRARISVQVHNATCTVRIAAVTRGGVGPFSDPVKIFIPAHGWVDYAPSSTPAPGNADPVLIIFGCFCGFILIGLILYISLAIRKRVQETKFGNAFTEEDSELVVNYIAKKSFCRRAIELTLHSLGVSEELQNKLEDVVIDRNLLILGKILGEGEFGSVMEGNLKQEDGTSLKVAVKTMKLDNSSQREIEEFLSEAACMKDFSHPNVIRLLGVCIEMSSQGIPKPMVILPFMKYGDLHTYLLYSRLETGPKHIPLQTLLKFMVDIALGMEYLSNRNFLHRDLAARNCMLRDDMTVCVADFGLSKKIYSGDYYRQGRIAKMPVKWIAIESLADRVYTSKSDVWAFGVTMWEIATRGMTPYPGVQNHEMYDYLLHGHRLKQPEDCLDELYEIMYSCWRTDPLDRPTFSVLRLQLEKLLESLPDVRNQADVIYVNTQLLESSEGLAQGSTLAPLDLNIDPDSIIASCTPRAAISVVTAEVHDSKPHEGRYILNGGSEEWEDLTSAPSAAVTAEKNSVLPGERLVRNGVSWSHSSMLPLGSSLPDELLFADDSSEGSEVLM
Mark false for phosphorylation enrichment values under 1, and true for everything at or above.

seq	target or test system	label value
ARTNEYKIIRT [INA_Y87]	MERTK (UniProt Q12866)	false
QRALLYEDALY [UNC13D_Y56]	MERTK (UniProt Q12866)	true
NPSFNYEIVNQ [DYNC1H1_Y3379_R3384Q_YF]	MERTK (UniProt Q12866)	false
VTAALYGRLYE [BTD_Y536]	MERTK (UniProt Q12866)	true
VKPHRYRPGTV [H3-5_Y41]	MERTK (UniProt Q12866)	false
GKMSSYAFFVQ [HMGB1_Y16]	MERTK (UniProt Q12866)	true
SSSAIYDNPDL [DCP1B_Y191_N195D]	MERTK (UniProt Q12866)	true

###

system: Fer (mouse); test: phosphorylation enrichment, bacterial display (enrichment ratio); higher = better substrate or ligand; peptides without Tyr show the background

seq	phosphorylation enrichment
YNDSAYNQQLI [ZPLD1_Y198_T197A]	0.46
RNFGTYTAGLS [RHBDD1_Y264_D262G_YF]	0.798
KVMANYVYKAG [MAML2_Y513_M514V]	0.358
LFIGQYSGKKE [L1CAM_Y1229_S1224L]	0.901
TRHDEYLEVTK [MAP1A_Y2217]	0.421
KDHPDYKFQAR [SOX10_Y171_P175A_YF]	0.485
GARGRYIMGGP [TNK1_Y277_V278I]	0.4
DRQASYLDKVR [KRT16_Y131_L128Q]	0.324
GFEEAYSVFKK [PAFAH1B1_Y28_YF]	0.365
TVFSDYLHPQF [CCPG1_Y569_YF]	0.43
PNRILYGDFWQ [MYH6_Y717_R721W]	0.626
LSCLAYSGKDA [FXN_Y205_S202C]	0.525
VRVQLYDPDFM [CYP4A22_Y100_Y104F]	0.579
ASGKYYAMKIL [AKT3_Y174]	0.434
QSSALYEDCYL [ASS1_Y83_R86C]	16.9
VTRDEYPSNPM [CEMIP2_Y1015_I1010V]	0.339
CTTIDYNYMCN [TP53_Y234_H233D]	0.464
KQFWRYFPGNL [SLC25A4_Y112_A114P]	0.469
PSQRRYVFFFS [PTEN_Y174_YF]	0.735
EILLSYPRTGY [TGM1_Y365_L366P]	0.49
SVTCTCSPALN [TP53_Y126_Y126C]	0.533
AFPVSYSSSSA [RET_Y687_G691S]	0.425
SMEGLYSSTQD [CLIC5_Y111]	3.64
GRLVEYDIDEV [SMS_Y134]	0.658
PSQRRNVYYYS [PTEN_Y174_Y174N]	0.568
PGIRMYQVQFN [LRFN1_Y454_YF]	0.423
RLLVVYSWTQR [HBB_Y36_P37S]	0.565
GKSFTYAAFHA [KCNT1_Y563]	0.454
GSSSSCGQHGS [HRNR_Y517_Y517C]	0.38
GVRFTYTIDGS [DCX_Y105_I104T_YF]	0.384
PELINYHQHFS [BTK_Y361_N365Y_YF]	0.366
YRQLQYCPSVE [CTNND2_Y508]	0.637
VITTLYIGFLG [KCNQ1_Y267_L262V]	0.605
KKCTRYIDCDR [ASPA_Y64_L69R]	0.406
MPLDQYSPSFP [FGFR1_Y776]	0.654
LLQEWYMIISR [HUWE1_Y4066_R4063Q]	0.821
FCVDCYKNFVA [FHL1_Y213_YF]	0.523
LMVFEYMRHGD [NTRK1_Y591]	0.614
QDLTDYLMKIL [ACTA2_Y190_R185Q]	0.558
SVVVSYEPPEV [TP53_Y220_P219S]	0.515
NFRRGYHLQVL [CD200R1L_Y138_H135R]	0.439
DRLASYLDKLR [KRT12_Y139_V143L]	0.479
VEDHDYEGGIG [TKT_Y564_Y563D]	0.602
RLEKEYFDQHF [NPC1_Y394]	0.5
RREWYYEVIIA [BACE1_Y260_V265A]	0.764
GRIHSYRGHLW [VHL_Y112_R107G]	0.373
SVGVPYEPPEV [TP53_Y220_V217G]	0.585
PELIDYGKLWK [ACTN1_Y193_R197W]	0.531
DKITQYVEEVK [STX2_Y49]	0.479
GDPTEYFITAI [IGSF22_Y501_S503I_YF]	0.404
KRIKSYNQEND [RPGRIP1L_Y448_L447S]	0.416
SGIYQYIIAKF [FOXL2_Y83]	9.49
YPIDHYLGKEM [G6PD_Y202_R198P]	0.415
KFMVGYEMLAK [GALT_Y339_Q344K]	0.349
GQECEYPPTQD [METAP2_Y137]	0.609
GGYTCYSDGKK [PROS1_Y266_C267S]	0.593
QEEPEYWDQET [HLA-A_Y83_G80E]	0.902
